system: Intestine; test: Biodistribution in iv dosed ICR mouse intestine assessed per organ measured at 30 mins; format: ADME, organism-based; settings: in vivo, 0.5 h
PROPERTY_NAME: Drug uptake (%ID)

P: CN(C)c1ccc(OCc2ccc(OCC[18F])cc2)cc1
Q: CN(C)c1ccc(COc2ccc(OCC[18F])cc2)cc1
### Prompt Two entries are listed, P and Q . Which one carries the higher Drug uptake? Your choice should be expressed through its label.
### Response P

###

tested on: Stomach; experiment: Biodistribution in iv dosed ICR mouse stomach assessed per organ measured at 10 mins; format: ADME, organism-based; settings: in vivo
PROPERTY_NAME: Drug uptake (%ID)

Check out these entries, answers already filled in.
- INPUT_SMILES: "COc1ccc(COc2ccc(OCCOCCOCC[18F])cc2)cc1"
  MEASUREMENT: 1.1
- INPUT_SMILES: "COc1ccc(OCc2ccc(OCC[18F])cc2)cc1"
  MEASUREMENT: 0.96

1: CN(C)c1ccc(COc2ccc(OCC[18F])cc2)cc1
2: COc1ccc(COc2ccc(OCC[18F])cc2)cc1
3: CN(C)c1ccc(OCc2ccc(OCC[18F])cc2)cc1
### Prompt Let's sort these by Drug uptake, smallest first. Go ahead? Respond with an ordered listing of the labels, as requested.
### Response 1, 2, 3
(1: 0.54 %ID, 2: 1.08 %ID, 3: 4.11 %ID)

###

test system: Stomach; experiment: Biodistribution in iv dosed ICR mouse stomach assessed per organ measured at 60 mins; format: ADME, organism-based; details: in vivo, 1 h
PROPERTY_NAME: Drug uptake (%ID)

- INPUT_SMILES: "COc1ccc(COc2ccc(OCC[18F])cc2)cc1"
  Drug uptake (%ID): 0.77
- INPUT_SMILES: "COc1ccc(COc2ccc(OCCOCCOCC[18F])cc2)cc1"
  Drug uptake (%ID): 0.9
- INPUT_SMILES: "COc1ccc(OCc2ccc(OCC[18F])cc2)cc1"
  Drug uptake (%ID): 0.98

P: CN(C)c1ccc(COc2ccc(OCC[18F])cc2)cc1
Q: CN(C)c1ccc(OCc2ccc(OCC[18F])cc2)cc1
### Prompt Looking at P and Q , which one comes out lower in Drug uptake terms? Your choice should be expressed through its label.
### Response P

###

test system: Liver; test: Biodistribution in iv dosed ICR mouse liver measured at 10 mins; assay type: ADME, organism-based; conditions: in vivo
PROPERTY_NAME: Drug uptake (% ID/g)

- INPUT_SMILES: "CN(C)c1ccc(OCc2ccc(OCC[18F])cc2)cc1"
  PROPERTY_NAME: "Drug uptake"
  MEASUREMENT: 6.38

a: COc1ccc(OCc2ccc(OCC[18F])cc2)cc1
b: COc1ccc(COc2ccc(OCC[18F])cc2)cc1
c: COc1ccc(COc2ccc(OCCOCCOCC[18F])cc2)cc1
d: CN(C)c1ccc(COc2ccc(OCC[18F])cc2)cc1
### Prompt # sort list by recorded Drug uptake, greatest to least Respond with an ordered listing of the labels, as requested.
### Response c, b, a, d
(c: 11.16 % ID/g, b: 7.47 % ID/g, a: 4.97 % ID/g, d: 3.23 % ID/g)

###

tested on: Brain; experiment: Biodistribution in iv dosed ICR mouse brain measured at 2 mins; assay type: ADME, organism-based; conditions: in vivo
PROPERTY_NAME: Drug uptake (% ID/g)

Check out these entries, answers already filled in.
- INPUT_SMILES: "COc1ccc(OCc2ccc(OCC[18F])cc2)cc1"
  Drug uptake [% ID/g]: 7.54
- INPUT_SMILES: "COc1ccc(COc2ccc(OCC[18F])cc2)cc1"
  Drug uptake [% ID/g]: 9.95

1: CN(C)c1ccc(COc2ccc(OCC[18F])cc2)cc1
2: CN(C)c1ccc(OCc2ccc(OCC[18F])cc2)cc1
### Prompt Two entries are listed, 1 and 2 . Which one carries the higher Drug uptake? Your choice should be expressed through its label.
### Response 2
(2: 9.14 % ID/g, 1: 4.51 % ID/g)

###

system: Intestine; experiment: Biodistribution in iv dosed ICR mouse intestine assessed per organ measured at 30 mins; format: ADME, organism-based; details: in vivo, 0.5 h
PROPERTY_NAME: Drug uptake (%ID)

- INPUT_SMILES: "COc1ccc(OCc2ccc(OCC[18F])cc2)cc1"
  EXPERIMENTAL_TARGET: "Intestine"
  MEASUREMENT: 6.85

1: COc1ccc(COc2ccc(OCC[18F])cc2)cc1
2: COc1ccc(COc2ccc(OCCOCCOCC[18F])cc2)cc1
### Prompt Two entries are listed, 1 and 2 . Which one carries the higher Drug uptake? Your choice should be expressed through its label.
### Response 2
(2: 16.43 %ID, 1: 7.66 %ID)
